Provide the recorded pIC50 for the entries that follow.
target: HLA-B*07:02; assay: IEDB peptide-MHC binding, purified MHC/competitive/radioactivity; bounds were set here for any values at or beyond the usual limits of such assays; conditions: source organism: Bordetella pertussis
Numbers only, as −log10 of the molar value.

FVRDGQSVI = 5.25
KDYRDKDGG = 4.16
KPAPQPGPQ = 4.50

Now for another entry.
So what does the record say about pIC50 for "PPRPVAAQV" ?
4.75

----------
target: HLA-B*57:01; test: IEDB peptide-MHC binding, purified MHC/competitive/radioactivity; bounds were set here for any values at or beyond the usual limits of such assays; settings: source organism: Bordetella pertussis
parameter: IC50
Dear colleague, please send the value followed by its unit.

VALASQARW = 188 nM

Lab note: next sequence to report on.
Which value of IC50 has been reported for "YLRQITPGW" in the records?
1540 nM
